IC50: recorded values
Biological target: PDE3A catalytic domain (PDE3Acat) (Homo sapiens, UniProt Q14432)
Construct: isolate the cDNA of a PDE3A catalytic domain
Sequence (Q14432 674-1093 limits assumed): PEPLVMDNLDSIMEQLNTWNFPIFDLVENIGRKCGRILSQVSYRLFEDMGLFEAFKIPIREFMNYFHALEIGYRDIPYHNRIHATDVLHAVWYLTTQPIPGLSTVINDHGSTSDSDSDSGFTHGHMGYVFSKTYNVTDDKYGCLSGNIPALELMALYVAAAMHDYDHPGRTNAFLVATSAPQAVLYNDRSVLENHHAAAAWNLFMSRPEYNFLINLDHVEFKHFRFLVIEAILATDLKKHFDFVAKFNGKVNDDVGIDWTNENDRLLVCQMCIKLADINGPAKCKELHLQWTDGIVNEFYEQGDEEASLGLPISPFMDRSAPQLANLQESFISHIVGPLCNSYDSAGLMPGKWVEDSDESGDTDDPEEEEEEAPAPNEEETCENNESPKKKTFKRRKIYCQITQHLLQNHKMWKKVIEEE
Assay: Phosphodiesterase inhibitory activity, recombinant PDE3Acat, [3H]cAMP
Details: 30° C. 20 minutes, read-out: IC50 (μmol/L) PDE3

- compound: "CCc1ccc2c(C3=NN(CCCCOc4ccc(C5=NNC(=O)CC5C)c(F)c4F)C(=O)C3(C)C)ccc(OC)c2n1 (single isomer, unassigned; (+)) [Example 210]"
  readoutName: "IC50"
  value: "< 0.01 µmol/L"
- compound: "CCc1ccc2c(C3=NN(CCCCOc4ccc(C5=NNC(=O)CC5)cc4)C(=O)C3(C)C)ccc(OC)c2n1"
  readoutName: "IC50"
  value: "0.1 to 1 µmol/L"
- compound: "COc1ccc(C2=NN(CCCCOc3ccc(C4=NNC(=O)CC4)c(F)c3F)C(=O)C2(C)C)c2nc(C(F)(F)F)nn12"
  readoutName: "IC50"
  value: "< 0.01 µmol/L"
- compound: "CCc1cc2c(C3=NN(CCCCOc4ccc(C5=NNC(=O)CC5C)c(F)c4F)C(=O)C3(C)C)ccc(OC)n2c1 (centres unmarked)"
  readoutName: "IC50"
  value: "< 0.01 µmol/L"
- compound: "CCc1ccc2c(C3=NN(CCCCOc4ccc(C5=NNC(=O)CC5C)cc4)C(=O)C3(C)C)ccc(OC)c2n1 (centres unmarked)"
  readoutName: "IC50"
  value: "0.01 to 0.1 µmol/L"

Look up IC50 of CCc1ccc2c(C3=NN(CCCCOc4ccc(C5=NNC(=O)CC5C)cc4F)C(=O)C3(C)C)ccc(OC)c2n1 (single isomer, unassigned; (+)) [Example 206] and report it. 0.1 to 1 µmol/L

// Input: `COc1ccc(C2=NN(CCCCOc3ccc(C4=NNC(=O)CC4)c(F)c3F)C(=O)C2(C)C)c2cc(C(F)(F)F)sc12` . Output its IC50 only. < 0.01 µmol/L

Quickly give me recorded IC50 for `CCc1ccc2c(C3=NN(CCCCOc4ccc(C5=NNC(=O)C5(C)C)cc4F)C(=O)C3(C)C)ccc(OC)c2n1` 0.01 to 0.1 µmol/L

###

Biological target: PDE4Bcat (Homo sapiens)
Sequence (Q07343 330-659 limits assumed): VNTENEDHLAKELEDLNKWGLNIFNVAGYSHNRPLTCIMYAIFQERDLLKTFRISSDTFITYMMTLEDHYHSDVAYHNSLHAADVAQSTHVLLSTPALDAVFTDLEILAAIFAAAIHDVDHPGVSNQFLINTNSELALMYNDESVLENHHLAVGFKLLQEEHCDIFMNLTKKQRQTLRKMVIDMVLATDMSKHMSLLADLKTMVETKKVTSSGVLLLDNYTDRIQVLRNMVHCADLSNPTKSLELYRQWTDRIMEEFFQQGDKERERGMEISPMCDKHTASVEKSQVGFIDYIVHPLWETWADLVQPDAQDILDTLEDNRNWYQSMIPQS
Assay: Phosphodiesterase inhibitory activity, recombinant PDE4Bcat, [3H]cAMP
Conditions: 30° C. 20 minutes, read-out: IC50 (μmol/L) PDE4
pIC50: −log10 of the molar value.
readoutName: pIC50

- compound: "COc1ccc(C2=NN(CCCCOc3ccc(C4=NNC(=O)CC4)c(F)c3F)C(=O)C2(C)C)c2sc(C(F)(F)F)nc12"
  pIC50: "> 8.00"
- compound: "COc1ccc(C2=NN(CCCCOc3ccc(C4=NNC(=O)C4(C)C)c(F)c3F)C(=O)C2(C)C)c2nc(C(F)(F)F)nn12"
  pIC50: "6.00 to 7.00"
- compound: "COc1ccc(C2=NN(CCCCOc3ccc(C4=NNC(=O)CC4C)c(F)c3F)C(=O)C2(C)C)n2cc(C(F)(F)F)nc12 (centres unmarked)"
  pIC50: "> 8.00"
- compound: "COc1ccc(C2=NN(CCCCOc3ccc(C4=NNC(=O)CC4)c(F)c3F)C(=O)C2(C)C)c2nc(C(F)(F)F)nn12"
  pIC50: "7.00 to 8.00"
- compound: "COc1ccc(C2=NN(CCCCOc3ccc(C4=NNC(=O)C4(C)C)c(F)c3F)C(=O)C2(C)C)c2cccnc12"
  pIC50: "7.00 to 8.00"
- compound: "CCc1ccc2c(C3=NN(CCCCOc4ccc(C5=NNC(=O)CC5C)cc4)C(=O)C3(C)C)ccc(OC)c2n1 (centres unmarked)"
  pIC50: "7.00 to 8.00"

Let me know recorded pIC50 for COc1ccc(C2=NN(CCCCOc3ccc(C4=NNC(=O)CC4C)c(F)c3F)C(=O)C2(C)C)c2cc(C(F)(F)F)sc12 (centres unmarked) , thanks. 7.00 to 8.00

Note down pIC50 recorded for COc1ccc(C2=NN(CCCCOc3ccc(C4=NNC(=O)CC4C)c(F)c3F)C(=O)C2(C)C)c2ccc(C)nc12 (centres unmarked) 7.00 to 8.00
